Origin of measurements: patent US20140086829A1

TARGET SYSTEM: T1, isoform 121 of human VEGF-A (Peprotech) (human, UniProt P15692-9 27-147)
T1 construct: also called human VEGF121; VEGF 121
T1 sequence (looked up): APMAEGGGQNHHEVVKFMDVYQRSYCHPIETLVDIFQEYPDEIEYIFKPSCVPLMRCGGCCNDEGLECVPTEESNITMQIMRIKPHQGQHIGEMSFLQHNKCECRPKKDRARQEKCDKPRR
ASSAY REMARKS: ELISA; antigen coated 1 µg/ml; scFv 10 µg/mL; 9E10-peroxidase
Documented absorbance at 492 nm across a set of binders
PROPERTY: absorbance at 492 nm

BINDER	OBS VALUE
scFv L3H6 antibody fragment (scFv, soluble, from E. coli) scFv: QQVQLVQSGAEVKKPGESLKISCKGSGYSFTSYWIGWVRQMPGKGLEWMGIIYPGDSDTRYSPSFQGQVTISADKSISTAYLQWSSLKASDTAMYYCARQGTHNRKIWGQGTMVTVSSAPQAKSSGSGSESKVDQAVVTQEPSLTVSPGGTVTLTCASSTGAVTSGNYPNWFQQRPGQPPRALIYSTSNKHSWTPARFSGSLLGGKAALTLSGAQPEDEAEYYCRLSYDLARPVFGGGTKLTVLG	2.84
soluble scFv 2H1 antibody fragment (scFv, from another filing) scFv: QQVQLVQSGAEVKKPGESLKISCKGSGYSFTSYWIGWVRQMPGKGLEWMGIIYPGDSDTRYSPSFQGQVTISADKSISTAYLQWSSLKASDTAMYYCARLVVRDTEIWGQGTMVTVSSAPQAKSSGSGSESKVDQAVVTQEPSLTVSPGGTVTLTCASSIGAVTSGNYPNWFQQRPGQPPRALIYSTSNKHSWTPARFSGSLLGGKAALTLSGAQPEDEAEYYCLLSYSGARPVFGGGTKLTVLGAAAGSEQKLISEEDLNSHHHHHH	0.691
scFv L3H5 antibody fragment (scFv, soluble, from E. coli) scFv: QQVQLVQSGAEVKKPGESLKISCKGSGYSFTSYWIGWVRQMPGKGLEWMGIIYPGDSDTRYSPSFQGQVTISADKSISTAYLQWSSLKASDTAMYYCARLVHRYRAIWGQGTMVTVSSAPQAKSSGSGSESKVDQAVVTQEPSLTVSPGGTVTLTCASSTGAVTSGNYPNWFQQRPGQPPRALIYSTSNKHSWTPARFSGSLLGGKAALTLSGAQPEDEAEYYCRLSYDLARPVFGGGTKLTVLG	2.78
scFv L3H7 antibody fragment (scFv, soluble, from E. coli) scFv: QQVQLVQSGAEVKKPGESLKISCKGSGYSFTSYWIGWVRQMPGKGLEWMGIIYPGDSDTRYSPSFQGQVTISADKSISTAYLQWSSLKASDTAMYYCARPYATDTRIWGQGTMVTVSSAPQAKSSGSGSESKVDQAVVTQEPSLTVSPGGTVTLTCASSTGAVTSGNYPNWFQQRPGQPPRALIYSTSNKHSWTPARFSGSLLGGKAALTLSGAQPEDEAEYYCRLSYDLARPVFGGGTKLTVLG	2.54
